// data source = patent US10030020B2

tested on: ABHD6 (Mus musculus (Mouse), UniProt Q8R2Y0)
Sequence (Q8R2Y0 whole entry): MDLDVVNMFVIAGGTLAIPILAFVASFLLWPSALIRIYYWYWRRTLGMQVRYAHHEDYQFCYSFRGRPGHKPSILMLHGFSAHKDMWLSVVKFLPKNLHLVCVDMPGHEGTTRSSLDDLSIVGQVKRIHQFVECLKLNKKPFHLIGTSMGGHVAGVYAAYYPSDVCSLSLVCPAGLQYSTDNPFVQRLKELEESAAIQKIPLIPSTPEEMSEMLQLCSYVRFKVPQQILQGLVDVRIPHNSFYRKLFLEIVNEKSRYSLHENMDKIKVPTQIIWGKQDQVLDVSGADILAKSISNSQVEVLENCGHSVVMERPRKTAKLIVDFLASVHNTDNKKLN
assay explanation: In vitro competitive activity-based protein profiling (mouse brain membrane fraction or cell lysates), ABHD6 band
Type: biochemical
measurement parameters: 1 μM, mouse proteome; read-out: ABHD6 % Inh 1 μM (mouse)
measure name: inhibition at 1 µM

IN: Please indicate inhibition at 1 µM recorded for `CC1(C)CC2(CCN(C(=O)OC(C(F)(F)F)C(F)(F)F)CC2)CN1Cc1cc(Cl)ccc1N1CCOCC1`
OUT: ≥ 75%

IN: Could you please provide reported inhibition at 1 µM for `CS(=O)(=O)N1CCN(c2cc(C(F)(F)F)ccc2CN2CCCC23CCN(C(=O)OC(C(F)(F)F)C(F)(F)F)CC3)CC1` ? Thanks!
OUT: < 25%

IN: Name the recorded inhibition at 1 µM of the compound listed here: `COc1cc(Cl)ccc1CN1CC2(CCN(C(=O)OC(C(F)(F)F)C(F)(F)F)CC2)CC1(C)C`
OUT: < 25%

IN: Please give the documented inhibition at 1 µM of `CS(=O)(=O)N1CCN(c2cccc(CN3CCCC34CCN(C(=O)OC(C(F)(F)F)C(F)(F)F)CC4)c2Cl)CC1`
OUT: < 25%

IN: Give recorded inhibition at 1 µM. `O=C(OC(C(F)(F)F)C(F)(F)F)N1CCC2(CCCN2Cc2ccc(Cl)c(C(F)(F)F)c2)CC1`
OUT: < 25%

IN: Give the reported inhibition at 1 µM for this compound. `O=C(OC(C(F)(F)F)C(F)(F)F)N1CCC2(CCN(Cc3ccc(Cl)cc3N3CCOCC3)C2)CC1`
OUT: ≥ 75%

IN: For the compound O=C(O)C1CCN(c2cc(C(F)(F)F)ccc2CN2CCCC23CCN(C(=O)OC(C(F)(F)F)C(F)(F)F)CC3)C1 (stereo not drawn) , give its reported inhibition at 1 µM.
OUT: 25 to 75%

IN: Give the reported value of inhibition at 1 µM for this record: `NC(=O)c1ccc(CN2CCCC23CCN(C(=O)OC(C(F)(F)F)C(F)(F)F)CC3)cc1C(F)(F)F`
OUT: 25 to 75%

IN: Give inhibition at 1 µM for `CCN1CCCc2cccc(CN3CCC4(CCN(C(=O)OC(C(F)(F)F)C(F)(F)F)CC4)C3)c21`
OUT: 25 to 75%

IN: Look up and report measured inhibition at 1 µM for this entry: `O=C(OC(C(F)(F)F)C(F)(F)F)N1CCC2(CCCN2Cc2ccc(Cl)c(N3CCOCC3)c2)CC1`
OUT: < 25%

IN: Determine from records and report inhibition at 1 µM for `O=C(OC(C(F)(F)F)C(F)(F)F)N1CCC2(CCCN2Cc2cc(OC3CCS(=O)(=O)CC3)cc(C(F)(F)F)c2)CC1`
OUT: < 25%

IN: Using the record for `CCOc1cc(CN2CCCC23CCN(C(=O)OC(C(F)(F)F)C(F)(F)F)CC3)ccc1Cl` , state its measured inhibition at 1 µM.
OUT: < 25%

IN: Assign inhibition at 1 µM to the following record: `CC(=O)NC1CCN(c2cc(Cl)ccc2CN2CCCC23CCN(C(=O)OC(C(F)(F)F)C(F)(F)F)CC3)CC1`
OUT: < 25%

IN: Determine from records and report inhibition at 1 µM for `O=C(O)C1CCN(c2cc(Cl)ccc2CN2CCCC23CCN(C(=O)OC(C(F)(F)F)C(F)(F)F)CC3)CC1`
OUT: < 25%

IN: Note inhibition at 1 µM for the compound shown: `O=C(O)c1ccc(CN2CCCC23CCN(C(=O)OC(C(F)(F)F)C(F)(F)F)CC3)cc1C(F)(F)F`
OUT: < 25%
